The values you see were collected from patent US20100291106A1.

TARGET DESC: T1, cynomolgus complement C3b protein (cynomolgus monkey (Macaca fascicularis))
T1 construct: also called cyno C3b; cynoC3b
TEST PROTOCOL: SPR (Biacore T100), C3b captured by anti-C3d antibody, IgG as analyte, 1:1 model
METRIC: pKd
Remember the convention: pKd equals -log10 of concentration in molar.

binder="MOR09674 IgG (antibody, V domains shown, Germlined human IgG1 with leucines 234 and 235 changed to alanines, lambda; also called antibody 9674) VH: EVQLVQSGAEVKKPGASVKVSCKASGYTFTSYSMHWVRQAPGQGLEWMGLINPYNGNTHYAQKFQGRVTMTRDTSISTAYMELSSLRSEDTAVYYCARMLRFDVWGQGTLVTVSS VL: ESALTQPASVSGSPGQSITISCTGTSSDGGGYNYVSWYQQHPGKAPKLMIYGVSNRPSGVSNRFSGSKSGNTASLTISGLQAEDEADYYCQTYTRYSDSPVFGGGTKLTVLG" value_reported=11.15
binder="MOR09609 IgG (antibody, V domains shown, Germlined human IgG1 with leucines 234 and 235 changed to alanines, kappa; also called antibody 9609) VH: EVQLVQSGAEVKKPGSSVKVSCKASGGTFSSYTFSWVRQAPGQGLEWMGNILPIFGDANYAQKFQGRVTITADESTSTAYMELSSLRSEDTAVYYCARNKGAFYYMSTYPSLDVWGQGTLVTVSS VL: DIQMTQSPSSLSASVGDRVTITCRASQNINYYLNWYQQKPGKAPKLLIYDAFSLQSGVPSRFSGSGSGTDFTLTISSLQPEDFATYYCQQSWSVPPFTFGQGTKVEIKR" value_reported=10.64
binder="MOR09610 IgG (antibody, V domains shown, Germlined human IgG1 with leucines 234 and 235 changed to alanines, kappa; also called antibody 9610) VH: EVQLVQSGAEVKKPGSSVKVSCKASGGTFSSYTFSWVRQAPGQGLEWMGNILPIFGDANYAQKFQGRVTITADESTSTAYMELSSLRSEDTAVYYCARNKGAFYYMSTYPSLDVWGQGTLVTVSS VL: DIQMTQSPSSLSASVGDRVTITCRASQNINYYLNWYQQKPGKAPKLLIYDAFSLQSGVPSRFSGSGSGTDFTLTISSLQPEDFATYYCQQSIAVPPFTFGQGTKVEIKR" value_reported=10.47

Continue with the binder presented below.
Bench note: what pKd did MOR09556 IgG (antibody, V domains shown, Germlined human IgG1 with leucines 234 and 235 changed to alanines, kappa; also called antibody 9556) VH: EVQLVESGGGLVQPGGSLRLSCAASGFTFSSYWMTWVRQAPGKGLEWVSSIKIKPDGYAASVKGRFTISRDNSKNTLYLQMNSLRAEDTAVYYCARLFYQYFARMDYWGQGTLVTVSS VL: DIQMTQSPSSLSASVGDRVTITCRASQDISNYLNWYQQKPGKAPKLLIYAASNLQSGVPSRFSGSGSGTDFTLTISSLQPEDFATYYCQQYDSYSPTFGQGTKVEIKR show?
10.99
